FYI, the data here is from patent US11542233B2.

test system: TDP-43 aggregation in PC12 cells stably expressing GFP-tagged mutant TDP-43 (TDP-43^Q33IK::eGFP); experiment: In vitro efficacy assay: inhibition of TDP-43 inclusions, concentration-response, fluorescence microscopy; format: cell-based; conditions: Rattus norvegicus, PC-12, PC12 cells, 1 hour pre-treatment, 15 μM sodium arsenite for 23 hours, 10-point dose response curve
pIC50: −log10 of the molar value.
The following compounds are listed with their measured pIC50 values.

Returns the measured pIC50 for the input compound. Input: CCN(C(=O)c1cc2ccccc2[nH]1)[C@H]1CCC[C@@H](NCc2ccccn2)C1 [Compound 127]
> 7.00

If you can, please state the reported pIC50 value of CCN(C(=O)c1nc2cc(C#N)ccc2[nH]1)[C@H]1CCC[C@@H](NCc2ccc(F)cc2)C1 [Compound 519] .
> 7.00

Give the measured pIC50 of CCN(C(=O)c1cc2ccccc2[nH]1)[C@H]1CCC[C@H](NCc2ccccc2)C1 [Compound 102] .
5.70 to 6.30

Could you share which pIC50 value was measured for CCN(C(=O)c1cc2ncccc2[nH]1)[C@H]1CCC[C@@H](NCc2c[nH]cn2)C1 [Compound 447] ?
6.30 to 7.00

// pIC50 lookup, key: CCN(C(=O)c1cc2ccccc2[nH]1)[C@H]1CCC[C@@H](NCc2ccc(O)cc2)C1 [Compound 428]
> 7.00

Look up pIC50: CCN(C(=O)c1nc2ccccc2[nH]1)[C@H]1CCC[C@@H](NCc2nc3ccccc3s2)C1 [Compound 488]
> 7.00

Look up pIC50: CCN(C(=O)c1nc2cc(C#N)ccc2[nH]1)[C@H]1CCC[C@@H](NCc2cc(C3CC3)on2)C1 [Compound 537]
> 7.00

* * *

system: TDP-43 aggregation in PC12 cells stably expressing GFP-tagged mutant TDP-43 (TDP-43^Q33IK::eGFP); experiment: In vitro efficacy assay: inhibition of TDP-43 inclusions, concentration-response, fluorescence microscopy; type: cell-based; details: Rattus norvegicus, PC-12, PC12 cells, 1 hour pre-treatment, 15 μM sodium arsenite for 23 hours, 10-point dose response curve
measured.attribute: IC50

Solved cases below.
compound | IC50
C#CCOc1cccc(CN[C@@H]2CCC[C@H](N(CC)C(=O)c3nc4c([N+](=O)[O-])cccc4[nH]3)C2)c1 [Compound 566] | < 100 nM
CCN(C(=O)c1cc2ccccc2[nH]1)[C@H]1CCC[C@@H](NCc2cc(C3CC3)no2)C1 [Compound 455] | < 100 nM
CCN(C(=O)c1cc2ncccc2[nH]1)[C@H]1CCC[C@H](NC(C)(C)c2ccc(OC)cc2)C1 [Compound 409] | 500 to 2000 nM
CCN(C(=O)c1cc2ccccc2[nH]1)[C@H]1CCC[C@@H](NCc2ccncc2)C1 [Compound 126] | 100 to 500 nM

Field request: IC50 | item: CCN(C(=O)c1cc2ccccc2[nH]1)[C@H]1CCC[C@@H](NCc2ccc(OC)cc2)C1 [Compound 128]
< 100 nM

Fill blank: measured IC50 of the compound CCN(C(=O)c1nc2ccccc2[nH]1)[C@H]1CCC[C@@H](NCc2ccccc2)C1 [Compound 400] is ____.
< 100 nM

Recorded IC50 of CCN(C(=O)c1nc2ccccc2[nH]1)[C@H]1CCC[C@@H](NCc2cc(C(F)(F)F)on2)C1 [Compound 554] , please.
< 100 nM

Data request, read-out IC50, for CCN(C(=O)c1cc2ncccc2[nH]1)[C@H]1CCC[C@@H](NC(C)(C)c2ccc(F)cc2)C1 [Compound 410]
< 100 nM

Which IC50 value belongs to CCN(C(=O)c1cc2ccccc2[nH]1)[C@H]1CCC[C@@H](NCc2nnc(C3CC3)s2)C1 [Compound 467] ?
< 100 nM

May I ask what IC50 has been recorded for CCN(C(=O)c1cc2cc(F)ccc2[nH]1)[C@H]1CCC[C@@H](NCc2oc3ccccc3c2C#N)C1 [Compound 553] ?
< 100 nM

Tell me the measured IC50 of CCN(C(=O)c1cc2ccccc2[nH]1)[C@H]1CCC[C@@H](N[C@@H]2CCc3ccccc32)C1 [Compound 121] , please.
> 2000 nM

Form field: reported IC50 of CCN(C(=O)c1cc2cc(C#N)ccc2[nH]1)[C@H]1CCC[C@@H](NCc2ccc(F)cc2)C1 [Compound 532]
< 100 nM

What does the data say about its IC50? Entry: CCN(C(=O)c1nc2ccccc2[nH]1)[C@H]1CCC[C@@H](NCc2ccc3oc(C)nc3c2)C1 [Compound 531]
100 to 500 nM

Please report the recorded IC50 for CCN(C(=O)c1cc2ccccc2[nH]1)[C@H]1CCC[C@@H](NCc2ccc(N=[N+]=[N-])cc2)C1 [Compound 317] .
< 100 nM

Need IC50 of CCN(C(=O)c1cc2ccccc2[nH]1)[C@H]1CCC[C@H](NC2(c3ccccc3)CC2)C1 [Compound 421] , thanks.
> 2000 nM

* * *

Parameter: pIC50. Scope: all listed entries.
test system: TDP-43 aggregation in PC12 cells stably expressing GFP-tagged mutant TDP-43 (TDP-43^Q33IK::eGFP); test: In vitro efficacy assay: inhibition of TDP-43 inclusions, concentration-response, fluorescence microscopy; assay type: cell-based; settings: Rattus norvegicus, PC-12, PC12 cells, 1 hour pre-treatment, 15 μM sodium arsenite for 23 hours, 10-point dose response curve
pIC50: −log10 of the molar value.

Here's what some known entries look like.
molecule | pIC50
CCN(C(=O)c1cc2ccccc2[nH]1)[C@H]1CCC[C@@H](NCc2ccc(F)cc2)C1 | > 7.00
C#CCOc1ccc(CN[C@@H]2CCC[C@H](N(CC)C(=O)c3nc4cc(N)ccc4[nH]3)C2)cc1 | 5.70 to 6.30
CCN(C(=O)c1cc2cc(C(F)(F)F)ccc2[nH]1)[C@H]1CCC[C@@H](NCc2ccccc2)C1 | > 7.00

Which measured pIC50 value corresponds to `CCN(C(=O)c1nc2cc(C#N)ccc2[nH]1)[C@H]1CCC[C@@H](NCc2cc3ccccc3o2)C1` ?
> 7.00

Can you share its pIC50? I mean this molecule: `CCN(C(=O)c1cc2cc(F)ccc2[nH]1)[C@H]1CCC[C@@H](NCc2oc3ccccc3c2C)C1`
> 7.00

Request the reported pIC50 associated with `CCN(C(=O)c1cc2ccccc2[nH]1)[C@@H]1CCC[C@@H](NCc2ccccc2)C1`
5.70 to 6.30

# lookup: pIC50 of CCN(C(=O)c1cc2ccccc2[nH]1)C1CCC[C@@H](NCc2ccc(F)cc2)C1 (some centres unmarked)
> 7.00

// returns reported pIC50 for input `CCN(C(=O)c1cc2ncccc2[nH]1)[C@H]1CCC[C@@H](NCc2cc(C)no2)C1`
> 7.00

* * *

System: TDP-43 aggregation in PC12 cells stably expressing GFP-tagged mutant TDP-43 (TDP-43^Q33IK::eGFP)
Experiment: In vitro efficacy assay: inhibition of TDP-43 inclusions, concentration-response, fluorescence microscopy
Format: cell-based
Conditions: Rattus norvegicus, PC-12, PC12 cells, 1 hour pre-treatment, 15 μM sodium arsenite for 23 hours, 10-point dose response curve
Procedure: Exemplary compounds of the invention were evaluated for efficacy in inhibiting TDP-43 inclusions using a concentration-response assay. […] The inhibitory effect on TDP-43 aggregation was measured using fluorescence microscopy. The ratio of cells with TDP-43 aggregates was calculated based on the total number of cells with detectable GFP expression. […]
measured.attribute: IC50

Completed entries (count: 6):
compound | IC50
CCN(C(=O)c1cc2c([nH]1)CCCS2(=O)=O)[C@H]1CCC[C@@H](NCc2ccccc2)C1 | 100 to 500 nM
CCN(C(=O)c1cc2ccccc2[nH]1)[C@@H]1CCC[C@@H](N[C@@H]2CCc3ccccc32)C1 | > 2000 nM
O=C(c1cc2ccccc2[nH]1)N(CC(F)(F)F)[C@H]1CCC[C@H](NCc2cccc(F)c2)C1 | 500 to 2000 nM
CCN(C(=O)c1cc2ccccc2[nH]1)[C@H]1CCC[C@@H](NCc2cc(C3CC3)on2)C1 | < 100 nM
CCN(C(=O)c1cc2ncccc2[nH]1)[C@H]1CCC[C@@H](NCc2ccc3nsnc3c2)C1 | < 100 nM
CCN(C(=O)c1cc2ccccc2[nH]1)[C@@H]1CCC[C@H](NCc2ccccc2)C1 | 500 to 2000 nM

Would you kindly share the measured IC50 for `CCN(C(=O)c1nc2cc(C#N)ccc2[nH]1)[C@H]1CCC[C@@H](NCc2oc3ccccc3c2C)C1` ?
< 100 nM

Quick one: IC50 for `CCN(C(=O)c1cc2ccccc2[nH]1)[C@H]1CCC[C@@H](NCc2cccc(OC(F)(F)F)c2)C1` ?
< 100 nM

Report IC50 for `CCN(C(=O)c1nc2cc(F)ccc2[nH]1)[C@H]1CCC[C@@H](NCc2oc3ccccc3c2C#N)C1` please.
< 100 nM

What IC50 value was documented for this compound, CCN(C(=O)c1cc2ncccc2[nH]1)[C@H]1CCC[C@@H](N[C@H](c2ccccc2)C(F)(F)F)C1 (single isomer, unassigned) ?
500 to 2000 nM

Field request: IC50 | item: `CCN(C(=O)c1nc2cc(F)ccc2[nH]1)[C@H]1CCC[C@@H](NCc2ccc(F)cc2)C1`
< 100 nM

Given the compound `CCN(C(=O)c1cc2ncccc2[nH]1)[C@H]1CCC[C@@H](NCc2cccc(F)c2)C1` , what is its reported IC50?
< 100 nM

IC50 for `CCN(C(=O)c1cc2ncccc2[nH]1)[C@H]1CCC[C@H](NC(C)(C)c2ccccc2)C1` ?
< 100 nM

Consider the compound shown here: `CCN(C(=O)c1nc2cc(F)ccc2[nH]1)[C@H]1CCC[C@@H](NCc2ccccc2)C1` What is its recorded IC50?
< 100 nM

Look up IC50 for this compound: `CCN(C(=O)c1[nH]c2ccccc2c1C)[C@H]1CCC[C@@H](NCc2ccccc2)C1`
< 100 nM
